Listing of pIC50 toward human HIF-PHD2 (Homo sapiens), each taken from a published source.
pIC50: −log10 of the molar value.
quantity-kind: pIC50

[[record]]
molecule = "Cc1ccc(F)cc1[C@H](C)n1ncc2nc(-n3cc(C(=O)O)cn3)nc(O)c21"
target_or_test_system = "human HIF-PHD2 (Homo sapiens)"
quantity_kind = "pIC50"
operator = "="
reported = 7.32

[[record]]
molecule = "Cc1cccc(-c2ncc3c(O)c(C(=O)NCC(=O)O)c(=O)n(C)c3n2)c1"
target_or_test_system = "human HIF-PHD2 (Homo sapiens)"
quantity_kind = "pIC50"
operator = "="
reported = 8.06

[[record]]
molecule = "O=C(CCNC(=O)c1ncc(C(=O)NC(c2ccccc2)c2ccccc2)c(O)n1)OCc1ccccc1"
target_or_test_system = "human HIF-PHD2 (Homo sapiens)"
quantity_kind = "pIC50"
operator = "="
reported = 7.61

[[record]]
molecule = "O=C(O)c1cnn(-c2nc(O)c3c(cnn3Cc3cc(F)cc(Br)c3)n2)c1"
target_or_test_system = "human HIF-PHD2 (Homo sapiens)"
quantity_kind = "pIC50"
operator = "="
reported = 7.28

[[record]]
molecule = "C[C@@H](c1ccc(OC(F)(F)F)c(Cl)c1)n1ncc2nc(-n3cc(C(=O)O)cn3)nc(O)c21"
target_or_test_system = "human HIF-PHD2 (Homo sapiens)"
quantity_kind = "pIC50"
operator = "="
reported = 7.80

[[record]]
molecule = "CC1(C)CCCC(n2ncc3nc(-n4cc(C(=O)O)cn4)nc(O)c32)C1 (single isomer, unassigned)"
target_or_test_system = "human HIF-PHD2 (Homo sapiens)"
quantity_kind = "pIC50"
operator = "="
reported = 7.37

[[record]]
molecule = "O=C(O)CNC(=O)C1=C(O)c2cccc(Cl)c2C2(CCOCC2)C1=O"
target_or_test_system = "human HIF-PHD2 (Homo sapiens)"
quantity_kind = "pIC50"
operator = ">"
reported = 7.00

[[record]]
molecule = "CN1Cc2c(c(O)c(C(=O)NCC(=O)O)c(=O)n2Cc2ccc(C#N)cc2)CC1=O"
target_or_test_system = "human HIF-PHD2 (Homo sapiens)"
quantity_kind = "pIC50"
operator = "="
reported = 8.12

